For each entry below, report its γi (interfacial tension relative to cyclohexane) value.
test: interfacial tension of aqueous solution (0.1%) relative to cyclohexane; format: physicochemical; conditions: Table 6; aqueous solution at a concentration of 0.1%, cyclohexane, 25° C.
Numbers only, in mN m^-1.

CCCCC[N+](C)(C)CCNC(=S)NCCC(F)(F)C(F)(F)C(F)(F)C(F)(F)C(F)(F)C(F)(F)C(F)(F)C(F)(F)F [C8 F17 / C5 H11]: 2
CCCCCCCCCCCC[N+](C)(C)CCNC(=S)NCCC(F)(F)C(F)(F)C(F)(F)C(F)(F)C(F)(F)C(F)(F)C(F)(F)C(F)(F)F [C8 F17 / C12 H25]: 2.2
CCCCCCCC[N+](C)(C)CCNC(=S)NCCC(F)(F)C(F)(F)C(F)(F)C(F)(F)F [C4 F9 / C8 H17]: 0.7
CCCCCCCCCCCCCCCC[N+](C)(C)CCNC(=S)NCCC(F)(F)C(F)(F)C(F)(F)C(F)(F)F [C4 F9 / C16 H33]: 2.1
CCCCCCCC[N+](C)(C)CCNC(=S)NCCC(F)(F)C(F)(F)C(F)(F)C(F)(F)C(F)(F)C(F)(F)F [C6 F13 / C8 H17]: 1.4

Here's the next entry for you.
Input line: What measured γi (interfacial tension relative to cyclohexane) goes with CCCCCCCCCCCC[N+](C)(C)CCNC(=S)NCCC(F)(F)C(F)(F)C(F)(F)C(F)(F)F [C4 F9 / C12 H25] ?
Output line: 1.9

###

assay: interfacial tension of aqueous solution (0.1%) relative to cyclohexane; format: physicochemical; settings: Table 6; aqueous solution at a concentration of 0.1%, cyclohexane, 25° C.
observable: γi (interfacial tension relative to cyclohexane) (mN m^-1)
Answers are plain numbers, in mN m^-1.

CCCCCCCCCCCCCCCC[N+](C)(C)CCNC(=S)NCCC(F)(F)C(F)(F)C(F)(F)C(F)(F)C(F)(F)C(F)(F)F [C6 F13 / C16 H33]: 0.7

Give γi (interfacial tension relative to cyclohexane) for each of the items listed below.
1. CCCCCCCC[N+](C)(C)CCNC(=S)NCCC(F)(F)C(F)(F)C(F)(F)C(F)(F)C(F)(F)C(F)(F)C(F)(F)C(F)(F)F [C8 F17 / C8 H17]
2. CCCCCCCCCCCC[N+](C)(C)CCNC(=S)NCCC(F)(F)C(F)(F)C(F)(F)C(F)(F)C(F)(F)C(F)(F)F [C6 F13 / C12 H25]

Output line:
3.2
0.8

###

assay: surface tension of aqueous solution (0.1%); type: physicochemical; conditions: Table 6; aqueous solution at a concentration of 0.1%, 25° C.
For each entry below, report its γs (surface tension) value.
One number for each entry, in mN m^-1.

CCCCCCCCCCCC[N+](C)(C)CCNC(=S)NCCC(F)(F)C(F)(F)C(F)(F)C(F)(F)C(F)(F)C(F)(F)C(F)(F)C(F)(F)F: 15.2
CCCCCCCCCCCC[N+](C)(C)CCNC(=S)NCCC(F)(F)C(F)(F)C(F)(F)C(F)(F)F: 23.1

Here's the next entry for you.
Input line: What measured γs (surface tension) goes with "CCCCCCCCCCCC[N+](C)(C)CCNC(=S)NCCC(F)(F)C(F)(F)C(F)(F)C(F)(F)C(F)(F)C(F)(F)F" ?
Output line: 17.5
